B1: INTS3 (parent)
chain: FHPIKETVVEEPVDITPYLDQLDE

Variants of: B1
Assay: protein stability index of a GFP-peptide fusion (GPS, HEK-293T) (PSI 1-6); higher = more stable;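 also: lentivirally expressed fusions sorted by FACS into six bins by GFP to DsRed ratio, PSI derived from sequencing read proportions per bin multiplied by bin number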
Details: c terminus: a fixed tail appended
Outcome: t for protein stability index of at least 3; f for anything lower.

>>> df
    mutation_id  assigned_category
 0         E11W                  f
 1         Q21C                  f
 2          P3V                  t
 3         E24F                  f
 4          I4H                  t
 5         D20L                  f
 6         E11Q                  t
 7         P17A                  t
 8         P17N                  t
 9         D14I                  f
10         E24I                  f
11         E24G                  f
12         E10C                  f
13         P12Q                  t
14         E10Y                  f
15         I15M                  f
16         I15P                  t
17         L19P                  t
18          K5G                  t
19         D14F                  f
20         D14G                  f
21          V9P                  t
22          V9M                  t
23         P12E                  t
24         L22N                  t
25         Y18D                  t
26          K5V                  t
27         D23K                  f
28         I15R                  t
29         L19A                  t
30         Y18I                  f
31          V9S                  t
32         E10V                  f
33          V9D                  t
34          V9F                  f
35         D14V                  f
36          P3D                  t
37         V13L                  t
38          F1N                  t
39         E10A                  f
40          V8E                  t
41         V13T                  t
42         D14T                  t
43         L22E                  t
44         V13H                  t
45          E6A                  f
46         D23Y                  f
47         V13G                  t
48          E6Q                  f
49         Q21M                  t
50          T7C                  f
51         D23L                  f
52          T7D                  t
53         L22C                  t
54          I4W                  f
55          T7F                  f
56         E10F                  f
57         Y18M                  t
58          V9N                  t
59          T7H                  t
60         P12S                  t
61         Y18L                  t
62          K5T                  t
63          P3Y                  f
64          V8T                  t
65         Q21T                  t
66         L19Y                  t
67         L19M                  f
68         D23M                  f
69         E11F                  f
70         E11V                  f
